Test system: NSC LUNG cancer cell lines
Stated conditions: log of concentration causing 50% lethality; arithmetic average of six to eight NSC lung cell lines
Measurement name: Log LC50 (moles/liter)
Write it as a number; the unit moles/liter goes unstated.

INSERT INTO assay_data (compound, recorded_value) VALUES
  ('COC1CCc2c1[nH]c1c2C(=O)C(C)=C(N2CC2)C1=O (centres unmarked) [Cyclopent[b]indole 3d]', '−4.2');

# query: Log LC50 | item CC1=C(N2CC2)C(=O)c2[nH]c3c(c2C1=O)CCC3O (centres unmarked) [Cyclopent[b]indole 3b] | system: NSC LUNG cancer cell lines
−4.22

And CC1=C(N2CC2)C(=O)c2[nH]c(CO)c(C)c2C1=O [Indole 2b] ?
−4.1

Query CC(=O)OCc1[nH]c2c(c1C)C(=O)C(C)=C(N1CC1)C2=O [Indole 2c] next
−4.1

Entry to check: CC(=O)OCc1[nH]c2c(c1C)C(=O)C(N1CC1)=C(C)C2=O [Indole 1c]
−4.48

Source listed as patent US6846840B2.
